Task for the reader: assign each of the following compounds its reported IC50.
Target: Prostaglandin G/H synthase 1 (Homo sapiens, UniProt P23219)
Sequence (P23219 whole entry): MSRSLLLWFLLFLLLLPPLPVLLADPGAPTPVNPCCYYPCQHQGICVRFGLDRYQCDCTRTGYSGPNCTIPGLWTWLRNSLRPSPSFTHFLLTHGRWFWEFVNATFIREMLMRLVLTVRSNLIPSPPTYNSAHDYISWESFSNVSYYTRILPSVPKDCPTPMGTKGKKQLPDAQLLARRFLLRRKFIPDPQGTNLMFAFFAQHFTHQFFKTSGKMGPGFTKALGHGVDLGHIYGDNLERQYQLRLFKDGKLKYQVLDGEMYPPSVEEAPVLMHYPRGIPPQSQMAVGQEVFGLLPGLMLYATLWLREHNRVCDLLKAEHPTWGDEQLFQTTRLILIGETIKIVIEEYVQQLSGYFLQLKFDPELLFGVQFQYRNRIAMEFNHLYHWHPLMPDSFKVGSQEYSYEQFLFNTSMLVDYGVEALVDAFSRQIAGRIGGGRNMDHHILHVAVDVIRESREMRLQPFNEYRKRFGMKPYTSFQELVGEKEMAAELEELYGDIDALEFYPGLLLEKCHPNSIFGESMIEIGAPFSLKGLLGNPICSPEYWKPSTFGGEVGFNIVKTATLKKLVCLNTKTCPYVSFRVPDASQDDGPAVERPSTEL
Format: tissue-based, Blood
Description: Inhibitory concentration was measured against Prostaglandin G/H synthase 1 in human whole blood

Measured IC50 of CC(C)c1ccc(C2=C(c3ccc(S(C)(=O)=O)cc3)C(C)(O)OC2=O)cc1 (centres undefined) : > 100 µM

Measured IC50 of CC1(O)OC(=O)C(c2ccccc2)=C1c1ccc(S(C)(=O)=O)cc1 (centres undefined) : > 90 µM

Measured IC50 of CC1(O)OC(=O)C(c2cc(F)cc(F)c2)=C1c1ccc(S(C)(=O)=O)cc1 (centres undefined) : > 90 µM

Measured IC50 of CC1(O)OC(=O)C(c2ccc(Br)cc2)=C1c1ccc(S(C)(=O)=O)cc1 (centres undefined) : > 100 µM
